Each item that follows carries a reported pKd.
Target: T1, EsCas13d, nuclease-dead (Eubacterium siraeum, UniProt B0MS50, R295A;H300A;R849A;H854A)
T1 sequence: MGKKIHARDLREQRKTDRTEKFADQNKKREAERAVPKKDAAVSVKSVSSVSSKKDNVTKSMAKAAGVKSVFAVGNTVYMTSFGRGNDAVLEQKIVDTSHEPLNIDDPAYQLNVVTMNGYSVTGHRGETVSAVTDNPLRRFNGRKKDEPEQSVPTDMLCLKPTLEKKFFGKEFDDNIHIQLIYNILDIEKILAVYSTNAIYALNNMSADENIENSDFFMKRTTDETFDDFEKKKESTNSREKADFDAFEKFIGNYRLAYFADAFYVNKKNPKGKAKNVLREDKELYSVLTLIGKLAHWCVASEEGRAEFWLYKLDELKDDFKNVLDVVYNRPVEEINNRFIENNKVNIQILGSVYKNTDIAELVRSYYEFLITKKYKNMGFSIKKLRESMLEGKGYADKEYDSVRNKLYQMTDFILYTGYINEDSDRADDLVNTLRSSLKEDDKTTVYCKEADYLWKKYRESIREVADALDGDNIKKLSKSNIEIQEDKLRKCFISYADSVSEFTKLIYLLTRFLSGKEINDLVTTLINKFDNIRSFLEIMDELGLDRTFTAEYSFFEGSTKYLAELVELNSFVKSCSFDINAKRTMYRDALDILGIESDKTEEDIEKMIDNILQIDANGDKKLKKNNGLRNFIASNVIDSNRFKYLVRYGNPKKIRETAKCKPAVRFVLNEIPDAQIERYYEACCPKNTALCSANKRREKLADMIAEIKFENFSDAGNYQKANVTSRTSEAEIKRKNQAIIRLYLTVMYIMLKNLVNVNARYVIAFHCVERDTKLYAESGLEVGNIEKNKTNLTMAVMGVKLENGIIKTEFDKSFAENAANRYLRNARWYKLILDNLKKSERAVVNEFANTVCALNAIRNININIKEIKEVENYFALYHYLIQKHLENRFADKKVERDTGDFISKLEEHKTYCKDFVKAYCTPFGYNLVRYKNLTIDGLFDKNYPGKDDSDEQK
Assay: crRNA (strand 1, pre-loaded); Mg2+; 40 mM Tris-HCl pH 7.5, 150 mM NaCl, 6 mM MgCl2, 1 mM DTT, 0.1% Tween-20, 0.2 mg/ml BSA; 25 C; 10 min per concentration, then washed
Conditions: tags: His6-TwinStrep-SUMO cleaved; N-terminal SNAP kept (SNAP-Surface 488); label: 3' end held by stalled T7 RNA polymerase
Conceptually, pKd converts a concentration in mol/L into minus its log10.

binder	pKd
target 3 insA 3' of 22,insC 3' of 22 (mixed) RNA 1: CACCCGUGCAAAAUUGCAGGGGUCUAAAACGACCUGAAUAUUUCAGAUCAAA RNA 2: GGGAAUGGAUCCACAUCUACGAAUUCGUUUACUUGAUCUGAAAUAUUCAGGUCUGCAGAUCGGAAGAGCACACGU	7.82

What value of pKd has been reported for the following binder? target 2 MT 5'PFS UGA 3'PFS UAA (mixed) RNA 1: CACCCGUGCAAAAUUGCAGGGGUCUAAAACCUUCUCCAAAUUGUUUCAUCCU RNA 2: GGGAAUGGAUCCACAUCUACGAAUUCUGAAGGAUGAAACAAUUUGGAGAAGUAAAGAUCGGAAGAGCACACGU
8.22
